// data source = ChEMBL document CHEMBL1201862

ASSAYED_SYSTEM: Aspartyl aminopeptidase (Plasmodium falciparum 3D7)
Sequence (Q8I2J3 whole entry): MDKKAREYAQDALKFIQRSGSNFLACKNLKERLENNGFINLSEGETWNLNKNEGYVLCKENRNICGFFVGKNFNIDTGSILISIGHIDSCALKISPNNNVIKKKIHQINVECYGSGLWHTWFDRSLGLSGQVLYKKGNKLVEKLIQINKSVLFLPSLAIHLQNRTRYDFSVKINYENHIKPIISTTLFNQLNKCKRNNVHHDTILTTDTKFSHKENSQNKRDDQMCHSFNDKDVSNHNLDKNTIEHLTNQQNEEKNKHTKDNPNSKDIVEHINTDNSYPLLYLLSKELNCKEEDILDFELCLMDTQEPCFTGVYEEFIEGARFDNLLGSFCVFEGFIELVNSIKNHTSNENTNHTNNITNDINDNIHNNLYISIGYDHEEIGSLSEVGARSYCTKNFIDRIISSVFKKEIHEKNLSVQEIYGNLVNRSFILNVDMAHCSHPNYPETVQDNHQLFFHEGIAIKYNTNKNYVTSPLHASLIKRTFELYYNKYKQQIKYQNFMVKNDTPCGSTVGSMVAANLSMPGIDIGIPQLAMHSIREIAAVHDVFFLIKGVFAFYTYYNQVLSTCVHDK
Active and inactive are the calls of the source.
RESULT_TYPE: IC50

MOLECULE	RESULT_TYPE	OBSERVED_RESULT
CNC[C@H](O)c1ccc(O)c(O)c1 [EPINEPHRINE BITARTRATE]	IC50	3.01 µM (active)
Cc1ccc(N=C(S)Nn2cnnc2)c(C)c1	IC50	2.11 µM (active)
Cc1cc(C)cc(C(=O)n2cnnc2N)c1	IC50	2.89 µM (active)
O=C(Nc1cccc(Cl)c1Cl)Nn1cnnc1	IC50	0.631 µM (active)
Cc1ccc(N2C(=O)/C(=C/Nn3cnnc3)c3ccccc3C2=O)cc1	IC50	1.67 µM (active)
CC1(C)C2([N+](=O)[O-])CN3CC1([N+](=O)[O-])CN(C2)C3c1ccc(O)c(O)c1 (configuration not stated)	IC50	1.19 µM (active)

Kindly consider the entry below.
Recorded result, "O=[N+]([O-])c1c(O)nc(/C=C\c2ccc(O)c(O)c2)nc1O" , IC50: 0.67 µM (active)

----------
ASSAYED_SYSTEM: Sentrin-specific protease 6 (Homo sapiens, UniProt Q9GZR1)
Sequence (Q9GZR1 whole entry): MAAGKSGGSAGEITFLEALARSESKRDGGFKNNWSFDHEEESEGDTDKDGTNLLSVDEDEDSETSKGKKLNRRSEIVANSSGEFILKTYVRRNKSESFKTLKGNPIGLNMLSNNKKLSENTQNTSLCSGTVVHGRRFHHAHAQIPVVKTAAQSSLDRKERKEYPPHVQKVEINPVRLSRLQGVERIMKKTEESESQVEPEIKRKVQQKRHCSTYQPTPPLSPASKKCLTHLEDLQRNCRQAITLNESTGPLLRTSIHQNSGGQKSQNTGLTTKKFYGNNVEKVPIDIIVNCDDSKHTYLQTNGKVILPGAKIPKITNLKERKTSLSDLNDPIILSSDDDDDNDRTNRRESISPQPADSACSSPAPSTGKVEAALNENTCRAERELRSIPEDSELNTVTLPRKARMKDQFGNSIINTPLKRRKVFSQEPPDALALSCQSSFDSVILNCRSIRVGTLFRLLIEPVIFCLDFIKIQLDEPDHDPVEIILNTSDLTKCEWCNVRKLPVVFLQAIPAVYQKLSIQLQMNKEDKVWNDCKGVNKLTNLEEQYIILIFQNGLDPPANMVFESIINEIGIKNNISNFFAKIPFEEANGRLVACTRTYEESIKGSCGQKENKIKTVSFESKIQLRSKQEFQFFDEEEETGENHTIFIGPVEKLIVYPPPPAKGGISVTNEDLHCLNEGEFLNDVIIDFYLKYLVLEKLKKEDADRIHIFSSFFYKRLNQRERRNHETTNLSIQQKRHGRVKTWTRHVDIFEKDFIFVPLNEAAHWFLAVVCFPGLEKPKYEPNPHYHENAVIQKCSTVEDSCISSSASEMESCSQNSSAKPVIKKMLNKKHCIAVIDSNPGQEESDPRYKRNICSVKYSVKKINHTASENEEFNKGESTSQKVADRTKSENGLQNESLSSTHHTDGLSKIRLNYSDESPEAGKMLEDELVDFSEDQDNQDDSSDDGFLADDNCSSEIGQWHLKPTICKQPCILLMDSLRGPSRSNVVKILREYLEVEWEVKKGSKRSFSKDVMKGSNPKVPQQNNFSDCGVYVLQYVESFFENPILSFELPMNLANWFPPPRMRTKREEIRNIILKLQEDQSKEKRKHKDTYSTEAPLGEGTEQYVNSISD
MEASUREMENT_DESCRIPTION: SAR Analysis of small molecule inhibitors of Sentrin-specific protease 6 (SENP6) using a Luminescent assay. [Related pubchem assays (depositor defined):AID2582, AID2599]
Assay type: functional
Active and inactive are the calls of the source.
RESULT_TYPE: IC50

The following compounds have reported results that may help.
1) COc1cc2cc(NC(C)=O)cc(NCc3ccccc3)c2cc1OC 40.4 µM (active)
2) Oc1nnc(/C=C/c2ccc(F)cc2)o1 > 99 µM (inactive)
3) CN(C)c1cc(N/N=C\c2ccccc2)nc(N(C)C)n1 11.3 µM (active)

Kindly consider the entry below.
Recorded result, "Cc1cc(Cl)ccc1NC(=O)c1ccc2c(c1)OCO2" , IC50: > 99 µM (inactive)
